Sourced from paper PMC12864922

testedTarget: TDP-43 (Homo sapiens, UniProt Q13148 1-414)
Sequence (Q13148 whole entry): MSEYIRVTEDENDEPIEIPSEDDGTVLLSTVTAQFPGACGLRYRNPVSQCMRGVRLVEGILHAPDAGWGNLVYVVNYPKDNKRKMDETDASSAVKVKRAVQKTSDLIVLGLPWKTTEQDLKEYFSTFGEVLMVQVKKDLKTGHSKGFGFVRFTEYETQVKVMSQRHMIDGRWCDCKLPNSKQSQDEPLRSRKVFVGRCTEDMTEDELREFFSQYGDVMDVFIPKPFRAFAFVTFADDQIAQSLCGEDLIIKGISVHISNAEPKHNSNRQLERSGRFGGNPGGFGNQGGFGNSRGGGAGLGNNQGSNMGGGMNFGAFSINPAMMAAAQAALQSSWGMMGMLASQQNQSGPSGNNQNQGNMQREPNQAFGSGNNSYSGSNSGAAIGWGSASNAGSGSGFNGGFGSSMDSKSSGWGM
testSummary: RNA Bind-n-Seq with designed 260-mer pool; 25 mM Tris-HCl, 150 mM KCl, 3 mM MgCl2, BSA (printed 500 mg/mL), 20 units/mL SUPERase IN; pH not stated; 500 nM RNA pool, 1 h, 4 C; TDP-43 5, 50, 500 nM; high values mean tight binding
assaySetup: protein: recombinant; tags: SBP (GST cleaved off with PreScission; pGEX-GST-SBP)
Over roughly 9,900 sequences, “r (bound/input frequency ratio)” has its median near 0.7; the highest 2% begin near 6.5. Only a selection was taken, and the highest values are over-represented in it overall.
testReadout: binding signal

Which binding signal is reported for this binder? ENSMUSG00000031028.491|Tub (ssRNA) RNA: GGGAGUUCUACAGUCCGACGAUCGCUUCGAUAUCCGCAUGCUACACCCUUUUAAAUGAACAUGGGGUGGUGAUGGUGCCUUAACAAUCUUGACACUAAGGUGAAGCAAGCAAGUAAGGUGUGUGCCUCUGGGAAGACAGGAGUCGGAAGCCAAGGUGUGUGGCAACAGUCUGGAAGAGAGCUUUUGGUAAUCAUACCGUCUUCAGUGACAAGGCAACAAUGCUGUAAAGUGGGUUUGUUUGGUUUUGUUUUUUCUUUCUCUUUUAUGGAAAUGGCAGGUCUAUUUGCCUCAAACGUUAUGUAGCUCUUGCGGUCGCACUAGUGUGGAAUUCUCGGGUGUCAAGG
1.97 R (bound/input frequency ratio)
